Where do these numbers come from? They come from the supplement of paper PMC9112550.

Answer each item with its documented shrunken log2 fold change.
system: Escherichia coli TOP10; test: shrunken log2 fold change of peptide-encoding DNA abundance (4.5 h post-induction vs induction); higher = less antimicrobial activity (less host growth inhibition); conditions: time post-induction: 4.5 h; library: site-saturation at positions 5, 18, 19, 20

Req: Param readout = shrunken log2 fold change; param system = Escherichia coli TOP10; param query = RRIRARPPRLPRPRPRPQWGPRP ; response: value;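 further: peptides expressed intracellularly from a pBAD plasmid library in pooled LB shake-flask culture, induced with 0.3% L-arabinose, DNA abundance read by NGS, three biological replicates, DESeq2 with apeglm shrinkage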
Resp: 0.315

Req: What would you report for RRIRIRPPRLPRPRPRPIHTPRP ?
Resp: -0.907

Req: Thanks! And RRIRNRPPRLPRPRPRPFWLPRP ?
Resp: -0.189

Req: Do the same for RRIRGRPPRLPRPRPRPNQDPRP please
Resp: 0.0491

Req: Next record, please: RRIRARPPRLPRPRPRPPGHPRP
Resp: 0.779

Req: Queued: RRIRWRPPRLPRPRPRPDMQPRP
Resp: 0.337

Req: Next up: RRIRFRPPRLPRPRPRPGPWPRP
Resp: 0.216

Req: Try the sequence RRIRARPPRLPRPRPRPAEVPRP
Resp: 0.129

Req: RRIRNRPPRLPRPRPRPVINPRP , same question.
Resp: -0.512

Req: Then what about the sequence RRIRRRPPRLPRPRPRPMYKPRP ?
Resp: -0.0524

Req: // query: RRIRFRPPRLPRPRPRPQCHPRP
Resp: -0.358

Req: Consider next the sequence RRIRDRPPRLPRPRPRPAADPRP in the same way.
Resp: 0.701

Req: Also check RRIRRRPPRLPRPRPRPQDGPRP
Resp: 0.106

Req: And for RRIRDRPPRLPRPRPRPMICPRP ?
Resp: -0.0307

Req: Could you do the same for RRIRTRPPRLPRPRPRPSCRPRP , please?
Resp: -0.219

Req: RRIRLRPPRLPRPRPRPRIHPRP ?
Resp: -0.081

Req: RRIRWRPPRLPRPRPRPNITPRP ?
Resp: -0.161

Req: What do we get for RRIRYRPPRLPRPRPRPAKKPRP ?
Resp: 0.0499

Req: Likewise for RRIRWRPPRLPRPRPRPWIMPRP ?
Resp: -0.0381

Req: Proceed to RRIRQRPPRLPRPRPRPADPPRP
Resp: 0.209

Req: # iterate: RRIRHRPPRLPRPRPRPDMPPRP
Resp: 0.144

Req: Now consider RRIRWRPPRLPRPRPRPPDEPRP and answer again.
Resp: 0.654

Req: Now consider RRIRTRPPRLPRPRPRPRWQPRP .
Resp: 0.47

Req: Let us now turn to RRIRLRPPRLPRPRPRPAVCPRP
Resp: 0.0348

Req: Can you check RRIRLRPPRLPRPRPRPLFEPRP next?
Resp: 1.33

Req: Continue with RRIRARPPRLPRPRPRPKWTPRP
Resp: -0.00127

Req: What do you have for RRIRIRPPRLPRPRPRPSWVPRP ?
Resp: -0.168

Req: Next sequence up: RRIRPRPPRLPRPRPRPEYFPRP
Resp: -0.185

Req: Now consider RRIRERPPRLPRPRPRPFPIPRP and answer again.
Resp: 0.118

Req: Quick one: RRIRQRPPRLPRPRPRPWGAPRP
Resp: 0.351

Req: Proceed to RRIRARPPRLPRPRPRPNSQPRP
Resp: 0.0062

Req: What would you report for RRIRWRPPRLPRPRPRPQMIPRP ?
Resp: -0.0866

Req: Here is the next sequence: RRIRKRPPRLPRPRPRPNTPPRP
Resp: 0.221

Req: Check RRIRGRPPRLPRPRPRPIHMPRP too.
Resp: -0.0548

Req: Another sequence to look at: RRIRTRPPRLPRPRPRPYMYPRP
Resp: -0.767

Req: Please answer likewise for RRIRWRPPRLPRPRPRPSMGPRP
Resp: 0.033

Req: Same lookup for RRIRIRPPRLPRPRPRPKGCPRP , please.
Resp: -0.00865

Req: Another: RRIRARPPRLPRPRPRPWYNPRP
Resp: -0.305

Req: Moving on to RRIRARPPRLPRPRPRPDNGPRP
Resp: -0.19

Req: Note, next up: RRIRNRPPRLPRPRPRPSAIPRP
Resp: -0.354

Req: Can you handle RRIRIRPPRLPRPRPRPYILPRP next?
Resp: -0.463

Req: Same thing, different sequence: RRIRDRPPRLPRPRPRPKNAPRP
Resp: -0.0796

Req: Try this sequence too: RRIRHRPPRLPRPRPRPKDPPRP
Resp: 0.0476

Req: Same read-out for RRIRSRPPRLPRPRPRPASGPRP ?
Resp: 0.268

Req: Query RRIRQRPPRLPRPRPRPWYIPRP next
Resp: -0.0906

Req: Another: RRIRNRPPRLPRPRPRPGQTPRP
Resp: 0.00913

Req: Could you do the same for RRIRERPPRLPRPRPRPMREPRP , please?
Resp: 0.992

Req: Another: RRIRLRPPRLPRPRPRPEIEPRP
Resp: -0.0912

Req: Entry to check: RRIRRRPPRLPRPRPRPGFIPRP
Resp: -0.00928

Req: Now consider RRIRWRPPRLPRPRPRPNEYPRP .
Resp: -0.39

Req: For RRIRQRPPRLPRPRPRPIGAPRP then?
Resp: -0.0217

Req: Would you kindly repeat that for RRIRWRPPRLPRPRPRPMNAPRP ?
Resp: 0.327

Req: Also need RRIRQRPPRLPRPRPRPHQNPRP , thanks.
Resp: -0.246

Req: Thanks! And RRIRGRPPRLPRPRPRPTAAPRP ?
Resp: 1.97

Req: Same for RRIRYRPPRLPRPRPRPTWMPRP
Resp: 0.0576

Req: Proceed to RRIRWRPPRLPRPRPRPTDHPRP
Resp: -0.307

Req: Lookup RRIRYRPPRLPRPRPRPLACPRP
Resp: -0.319

Req: Could you do the same for RRIRTRPPRLPRPRPRPTFNPRP , please?
Resp: -0.199

Req: Now try RRIRCRPPRLPRPRPRPFELPRP .
Resp: -0.0697

Req: Repeat for the following sequence: RRIRQRPPRLPRPRPRPSYPPRP
Resp: -0.857

Req: Thanks! And RRIRYRPPRLPRPRPRPRHFPRP ?
Resp: -0.209

Req: Item: RRIRPRPPRLPRPRPRPWKYPRP
Resp: -0.269

Req: Now consider RRIRARPPRLPRPRPRPMQTPRP and answer again.
Resp: 0.114
